// provenance: PubChem BioAssay (NCI)

- Test system: MCF7 breast
- Experiment summary: NCI-60 one-dose screen, 48 h (100 = growth as untreated, 0 = no growth, -100 = all killed)
- Particulars: 10 µM unless noted
This is part of a sample that, as a whole, favours compounds with a hit. Of some 83,000 tested, about 20% had one in any assay.
Mark 1 for reported growth of 90% or greater; mark -1 for anything smaller.

Known results for molecules:
{"columns": ["Molecule", "Label"],
 "data": [
  ["CCNC(=O)N1CCc2c(Br)c3c(c(OC)c2C1Cc1ccc(OC)cc1)OCO3 (stereo not given)", -1],
  ["O=c1cc(C(F)(F)F)c2cc(-c3cc4ccccc4c(=O)o3)c(O)cc2o1", -1]
]}

Q: Evaluate Cc1ccc(Cc2cnc(NC(=O)/C=C/c3ccc(C)o3)s2)cc1 : growth at minimum 90%?
Ans: -1

Q: Evaluate COc1ccc(-c2nc3c(c(-c4ccc(Cl)cc4)nn3-c3ccccc3)c(-c3ccccc3)c2C#N)cc1 : growth at minimum 90%?
Ans: 1

###

- Tested on: NCI-H23 lung
- Experiment summary: NCI-60 one-dose screen, 48 h (100 = growth as untreated, 0 = no growth, -100 = all killed)
- Particulars: 10 µM unless noted
- Description: Growth inhibition of the NCI-H23 human Non-Small Cell Lung tumor cell line is measured as a screen for anti-cancer activity. Cells are grown in 96 well plates and exposed to the test compound for 48 hours. Compounds are tested at a single concentration, which is 10^-5 M for most compounds. The reported endpoint is percent growth (GI% or GIPRCNT), where numbers from 0 - 100% represent growth inhibition, and numbers from -100% - 0 represent cell death. […]
About 83,000 compounds went through this panel and 20% of them were active in at least one assay; those are over-represented in the sample as a whole.
Assign labels as follows, please: true (1) for growth below 70%; false (0) for growth equal to or exceeding 70%.

Q: Strictly below 70% in growth? Cc1cccc(NC(=O)Cn2cc(CN3CCN(c4ccnc5cc(Cl)ccc45)CC3)nn2)c1
Ans: false (0)

Q: Strictly below 70% in growth? OC1CSSC1Cn1cnc2c(Nc3ccc(OCc4cccc(F)c4)c(Cl)c3)ncnc21 (stereo not given)
Ans: true (1)

Q: Strictly below 70% in growth? O=C(CSc1nnnn1-c1ccccc1)Nc1ccc(Oc2ccccc2)cc1
Ans: false (0)

Q: Strictly below 70% in growth? N#Cc1c(-c2ccccc2)cc(-c2ccccc2)n(CCCCC(=O)NO)c1=O
Ans: true (1)

Q: Strictly below 70% in growth? CCCCO[C@@H]1C=C2[C@H]3CC(C)(C)C(=O)C[C@]3(C(=O)O[C@@H]3O[C@H](CO[C@@H]4O[C@H](CO)[C@@H](OC5OC(C)C(O)C(O)C5O)[C@H](O)[C@H]4O)[C@@H](O)[C@H](O)[C@H]3O)CC[C@@]2(C)[C@]2(C)CC[C@H]3C(C)(C)C(=O)CC[C@]3(C)[C@@H]12 (stereo not given in full)
Ans: true (1)

Q: Strictly below 70% in growth? CN(C)c1ccc(C(=S)c2ccc(N(C)C)cc2)cc1
Ans: false (0)

Q: Strictly below 70% in growth? CCn1cc(C(=O)O)c(=O)c2cc(F)c(N3CCN(CC(=O)Nc4ccccc4)C(C)C3)c(F)c21 (stereo not given)
Ans: false (0)

###

- System: RXF 393 renal
- Experiment summary: NCI-60 one-dose screen, 48 h (100 = growth as untreated, 0 = no growth, -100 = all killed)
- Particulars: 10 µM unless noted
Compounds without any hit were thinned out: in the full panel of roughly 83,000, 20% have a hit.
Each entry below carries its recorded growth.
Number only, in %; omit the unit.

Readout growth for Nc1[nH]nc2nc(-c3ccccc3)n3c4ccccc4nc3c12 , test system RXF 393 renal, was 93.9
